Target: recombinant PfSUB1 (rPfSUB1) (Plasmodium falciparum)
Construct: made in house
Sequence (Q8I0V0 218-688): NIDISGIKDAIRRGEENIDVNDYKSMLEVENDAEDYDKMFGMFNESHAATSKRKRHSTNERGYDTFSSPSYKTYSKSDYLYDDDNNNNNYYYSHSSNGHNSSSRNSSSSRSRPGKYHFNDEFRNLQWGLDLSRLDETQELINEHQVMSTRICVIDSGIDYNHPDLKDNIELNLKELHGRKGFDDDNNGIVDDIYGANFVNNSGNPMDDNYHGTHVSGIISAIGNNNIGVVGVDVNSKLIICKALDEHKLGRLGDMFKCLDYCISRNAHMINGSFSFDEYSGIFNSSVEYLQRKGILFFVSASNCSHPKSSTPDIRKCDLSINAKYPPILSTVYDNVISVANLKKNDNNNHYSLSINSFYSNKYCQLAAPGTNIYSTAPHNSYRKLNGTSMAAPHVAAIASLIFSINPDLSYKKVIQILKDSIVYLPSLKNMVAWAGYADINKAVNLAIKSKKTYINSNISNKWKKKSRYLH
Assay: PfSUB1 enzyme assay (recombinant PfSUB1, fluorogenic peptide substrate)
Format: biochemical
metric_name: IC50 (nM)
Dear colleague, please return just the value in nM, with no unit written.

Task item: Write down the reported IC50 of CC[C@H](C)[C@H](NC(=O)[C@@H](NC(=O)c1cc(C)cc(C)c1)C1CCCC1)C(=O)NCC(=O)N[C@H]1CCC(=O)OB1O , test system: recombinant PfSUB1 (rPfSUB1) (Plasmodium falciparum).
Reply: 15.3

---

Test system: P. falciparum line 1AC5 (8-10-fold reduced PfSUB1)
Assay: Parasite growth assay, PfSUB1 knock-down 1AC5 line
Format: cell-based, Plasmodium falciparum
Settings: Plasmodium falciparum, 96 h, read-out: EC50 parasite growth, 1AC5 line
metric_name: EC50 (nM)
Dear colleague, please return just the value in nM, with no unit written.

Solved cases below.
CCN(CC)CCCC(C)Nc1ccnc2cc(Cl)ccc12 (stereo not shown) [CQ, chloroquine, reference compound] = 5.74
CC[C@H](C)[C@H](NC(=O)[C@@H](NC(=O)c1cc(C)cc(C)c1)C1CCCC1)C(=O)NCC(=O)N[C@H]1CCC(=O)OB1O = 160
CC(=O)N[C@H](C(=O)N[C@H](C(=O)NCC(=O)N[C@@H](C)B(O)O)C(C)C)C1CCCC1 = 130

Now examine the next entry.
Task item: I'd like to know its EC50. The compound in question is C[C@H]1[C@H](OC(=O)CCC(=O)O)O[C@@H]2O[C@@]3(C)CC[C@H]4[C@H](C)CC[C@@H]1[C@@]24OO3 [Artesunate, artesunate, reference compound]
Reply: 4.87
